Tested on: MCF7
measurement-description: Growth inhibition of human MCF7 cells at 10 uM after 48 hrs by SRB assay relative to control
Format: functional
condition-set: MCF7, 48 h, read-out: GI
The following molecules are shown together with reported inhibition of growth at 10 µM values.

smiles-string | subject-of-test | inhibition of growth at 10 µM / %
COc1cccc(C(=O)Nc2cccc(-c3cc(=O)c4c(O)c(OC)c(OC)cc4o3)c2)c1 | MCF7 | 34.9
COc1cc2oc(-c3cccc(C(=O)Nc4ccccc4)c3)cc(=O)c2c(OC)c1OC | MCF7 | 7.49
COc1ccccc1NC(=O)c1cccc(-c2cc(=O)c3c(OC)c(OC)c(OC)cc3o2)c1 | MCF7 | 28.4
COc1cccc(NC(=O)c2cccc(-c3cc(=O)c4c(OC)c(OC)c(OC)cc4o3)c2)c1 | MCF7 | 12.3

---

System: SK-MEL-28
measurement-description: Growth inhibition of human SK-MEL-28 cells at 10 uM after 48 hrs by SRB assay relative to control
Assay type: functional
condition-set: SK-MEL-28, 48 h, read-out: GI
measured-parameter: inhibition of growth at 10 µM (%)

molecule | u | test-value
Cc1ccc(NC(=O)c2ccc(CN3CCN(C)CC3)cc2)cc1Nc1nccc(-c2cccnc2)n1 [IMATINIB] | % | -9.4
COc1ccccc1C(=O)Nc1cccc(-c2cc(=O)c3c(O)c(OC)c(OC)cc3o2)c1 | % | -1.9
COc1cccc(NC(=O)c2cccc(-c3cc(=O)c4c(O)c(OC)c(OC)cc4o3)c2)c1 | % | 14.2
COc1ccccc1C(=O)Nc1cccc(-c2cc(=O)c3c(OC)c(OC)c(OC)cc3o2)c1 | % | 44
COc1cc2oc(-c3cccc(C(=O)Nc4ccc5c(c4)OCO5)c3)cc(=O)c2c(OC)c1OC | % | 20.4
COc1cc2oc(-c3cccc(NC(=O)c4ccc5c(c4)OCO5)c3)cc(=O)c2c(O)c1OC | % | 15.2
COc1ccc(NC(=O)c2cccc(-c3cc(=O)c4c(O)c(OC)c(OC)cc4o3)c2)cc1 | % | -4.12
COc1ccc(NC(=O)c2cccc(-c3cc(=O)c4c(OC)c(OC)c(OC)cc4o3)c2)cc1 | % | 28.7
COc1cc2oc(-c3cccc(NC(=O)c4ccccc4)c3)cc(=O)c2c(OC)c1OC | % | 26.8

---

System: SK-MEL-28
measurement-description: Growth inhibition of human SK-MEL-28 cells at 10 uM after 48 hrs by SRB assay relative to control
Format: functional
condition-set: SK-MEL-28, 48 h, read-out: GI

smiles-string | inhibition of growth at 10 µM
COc1cc2oc(-c3cccc(C(=O)Nc4ccc5c(c4)OCO5)c3)cc(=O)c2c(O)c1OC | 10.2%
COc1cc2oc(-c3cccc(NC(=O)c4ccc5c(c4)OCO5)c3)cc(=O)c2c(OC)c1OC | 44.9%
COc1cc(NC(=O)c2cccc(-c3cc(=O)c4c(O)c(OC)c(OC)cc4o3)c2)cc(OC)c1OC | 22.6%
COc1cccc(C(=O)Nc2cccc(-c3cc(=O)c4c(OC)c(OC)c(OC)cc4o3)c2)c1 | 27%
COc1ccccc1NC(=O)c1cccc(-c2cc(=O)c3c(OC)c(OC)c(OC)cc3o2)c1 | 24.6%
COc1ccccc1NC(=O)c1cccc(-c2cc(=O)c3c(O)c(OC)c(OC)cc3o2)c1 | 5.62%
COc1cccc(C(=O)Nc2cccc(-c3cc(=O)c4c(O)c(OC)c(OC)cc4o3)c2)c1 | 22.5%
COc1ccc(C(=O)Nc2cccc(-c3cc(=O)c4c(O)c(OC)c(OC)cc4o3)c2)cc1 | 9.4%
COc1cccc(NC(=O)c2cccc(-c3cc(=O)c4c(OC)c(OC)c(OC)cc4o3)c2)c1 | 26.6%

---

System: MCF7
measurement-description: Growth inhibition of human MCF7 cells at 10 uM after 48 hrs by SRB assay relative to control
Assay type: functional
condition-set: MCF7, 48 h, read-out: GI

smiles-string | inhibition of growth at 10 µM [%]
COc1cc2oc(-c3cccc(C(=O)Nc4ccc5c(c4)OCO5)c3)cc(=O)c2c(O)c1OC | 8.35
COc1cc2oc(-c3cccc(C(=O)Nc4ccccc4)c3)cc(=O)c2c(O)c1OC | 21.9
COc1ccc(C(=O)Nc2cccc(-c3cc(=O)c4c(O)c(OC)c(OC)cc4o3)c2)cc1 | 9.78
COc1ccccc1C(=O)Nc1cccc(-c2cc(=O)c3c(OC)c(OC)c(OC)cc3o2)c1 | 46.6
COc1ccccc1C(=O)Nc1cccc(-c2cc(=O)c3c(O)c(OC)c(OC)cc3o2)c1 | -1.88
Cc1ccc(NC(=O)c2ccc(CN3CCN(C)CC3)cc2)cc1Nc1nccc(-c2cccnc2)n1 | 8.1
COc1ccc(NC(=O)c2cccc(-c3cc(=O)c4c(O)c(OC)c(OC)cc4o3)c2)cc1 | 6.72
COc1cc(NC(=O)c2cccc(-c3cc(=O)c4c(O)c(OC)c(OC)cc4o3)c2)cc(OC)c1OC | 50.6
COc1ccc(NC(=O)c2cccc(-c3cc(=O)c4c(OC)c(OC)c(OC)cc4o3)c2)cc1 | 21.1
COc1cc2oc(-c3cccc(C(=O)Nc4ccc5c(c4)OCO5)c3)cc(=O)c2c(OC)c1OC | 17.9
COc1cccc(NC(=O)c2cccc(-c3cc(=O)c4c(O)c(OC)c(OC)cc4o3)c2)c1 | 13.2
COc1cc2oc(-c3cccc(NC(=O)c4ccc5c(c4)OCO5)c3)cc(=O)c2c(O)c1OC | 11.4
COc1cc2oc(-c3cccc(NC(=O)c4ccccc4)c3)cc(=O)c2c(OC)c1OC | 22.7
COc1cc(NC(=O)c2cccc(-c3cc(=O)c4c(OC)c(OC)c(OC)cc4o3)c2)cc(OC)c1OC | 65.7
COc1ccccc1NC(=O)c1cccc(-c2cc(=O)c3c(O)c(OC)c(OC)cc3o2)c1 | 7.54
COc1cc2oc(-c3cccc(NC(=O)c4ccc5c(c4)OCO5)c3)cc(=O)c2c(OC)c1OC | 56.4
COc1cccc(C(=O)Nc2cccc(-c3cc(=O)c4c(OC)c(OC)c(OC)cc4o3)c2)c1 | 21.3
COc1ccc(C(=O)Nc2cccc(-c3cc(=O)c4c(OC)c(OC)c(OC)cc4o3)c2)cc1 | 33.5

---

System: SK-MEL-28
measurement-description: Growth inhibition of human SK-MEL-28 cells at 10 uM after 48 hrs by SRB assay relative to control
Assay type: functional
condition-set: SK-MEL-28, 48 h, read-out: GI

smiles-string | inhibition of growth at 10 µM / %
COc1ccc(C(=O)Nc2cccc(-c3cc(=O)c4c(OC)c(OC)c(OC)cc4o3)c2)cc1 | 31
COc1cc(NC(=O)c2cccc(-c3cc(=O)c4c(OC)c(OC)c(OC)cc4o3)c2)cc(OC)c1OC | 36.5
COc1cc2oc(-c3cccc(C(=O)Nc4ccccc4)c3)cc(=O)c2c(O)c1OC | 12.6
COc1cc2oc(-c3cccc(C(=O)Nc4ccccc4)c3)cc(=O)c2c(OC)c1OC | 8.31

---

Test system: NCI-H226
measurement-description: Growth inhibition of human NCI-H226 cells at 10 uM after 48 hrs by SRB assay relative to control
Type: functional
condition-set: NCI-H226, 48 h, read-out: GI
The following compounds are shown together with reported inhibition of growth at 10 µM values.
measured-parameter: inhibition of growth at 10 µM (%)

smiles-string | test-value
COc1cc2oc(-c3cccc(C(=O)Nc4ccc5c(c4)OCO5)c3)cc(=O)c2c(O)c1OC | 21.5
COc1ccc(C(=O)Nc2cccc(-c3cc(=O)c4c(OC)c(OC)c(OC)cc4o3)c2)cc1 | 30.1
COc1ccc(C(=O)Nc2cccc(-c3cc(=O)c4c(O)c(OC)c(OC)cc4o3)c2)cc1 | 41.4
COc1ccccc1C(=O)Nc1cccc(-c2cc(=O)c3c(O)c(OC)c(OC)cc3o2)c1 | 13
Cc1ccc(NC(=O)c2ccc(CN3CCN(C)CC3)cc2)cc1Nc1nccc(-c2cccnc2)n1 | 10.6
COc1cc2oc(-c3cccc(NC(=O)c4ccccc4)c3)cc(=O)c2c(OC)c1OC | 18.6
COc1cc(NC(=O)c2cccc(-c3cc(=O)c4c(OC)c(OC)c(OC)cc4o3)c2)cc(OC)c1OC | 41.5
COc1ccccc1C(=O)Nc1cccc(-c2cc(=O)c3c(OC)c(OC)c(OC)cc3o2)c1 | 41.6

---

Test system: DU-145
measurement-description: Growth inhibition of human DU145 cells at 10 uM after 48 hrs by SRB assay relative to control
Assay type: functional
condition-set: DU-145, 48 h, read-out: GI

smiles-string | subject-of-test | inhibition of growth at 10 µM [%]
COc1ccc(NC(=O)c2cccc(-c3cc(=O)c4c(OC)c(OC)c(OC)cc4o3)c2)cc1 | DU-145 | 26.3
COc1cc2oc(-c3cccc(C(=O)Nc4ccc5c(c4)OCO5)c3)cc(=O)c2c(OC)c1OC | DU-145 | 18.7
COc1cccc(NC(=O)c2cccc(-c3cc(=O)c4c(O)c(OC)c(OC)cc4o3)c2)c1 | DU-145 | 19.4
COc1ccc(NC(=O)c2cccc(-c3cc(=O)c4c(O)c(OC)c(OC)cc4o3)c2)cc1 | DU-145 | 3.06
